- TGT: cloned human or rodent CNS receptors, channels, and transporters (PDSP panel) (Homo sapiens)
- Construct: expressed in transfected cells
- Sequence (P21728 whole entry): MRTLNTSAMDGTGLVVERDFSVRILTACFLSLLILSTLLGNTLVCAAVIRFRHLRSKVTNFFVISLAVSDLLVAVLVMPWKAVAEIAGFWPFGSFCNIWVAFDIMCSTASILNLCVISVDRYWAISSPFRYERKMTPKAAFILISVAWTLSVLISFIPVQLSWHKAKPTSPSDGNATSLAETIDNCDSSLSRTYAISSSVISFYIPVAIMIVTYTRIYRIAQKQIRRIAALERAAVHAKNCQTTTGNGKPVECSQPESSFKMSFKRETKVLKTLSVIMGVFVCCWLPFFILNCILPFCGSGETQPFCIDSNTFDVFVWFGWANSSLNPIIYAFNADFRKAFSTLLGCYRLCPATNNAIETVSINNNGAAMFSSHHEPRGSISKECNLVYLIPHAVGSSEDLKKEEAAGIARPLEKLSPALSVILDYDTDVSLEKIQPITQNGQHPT
- PROCEDURE DETAILS: PDSP GPCR panel primary binding assays at 10 μM
- MEASUREMENT SETUP: D1; primary assay, replicate 1
- Experimental: GPCR panel: Screening against the receptors within the PDSP panel offers an assessment of off-target pharmacological activity at cloned human or rodent CNS receptors, channels, and transporters that could confound CNS-related phenotypes. A total of 46–47 primary binding assays were run in quadruplicate on these compounds at 10 μM, with follow-up secondary binding assays in 11-point dose-response in triplicate for select compounds versus select receptors. […]
Catalogue of compounds with associated Inhibition 1
The answer is to be given in %; state only the numeric part.

O=C(NC1CC1)C(=O)C(Cc1ccccc1)NC(=O)[C@H]1CCC(=O)N1Cc1ccccc1 (stereo partly shown) [UNC10302676A, ABT-957 (Alicapistat)]	13.52
CCC(=O)N1CCC(NC(=O)Nc2ccc(OC(F)(F)F)cc2)CC1 [UNC10302681A, TPPU]	-5.26
CC(=O)N1CCC(NC(=O)NC23CC4CC(CC(C4)C2)C3)CC1 [UNC10302683A, AR9281]	-3.64

Endpoint output: Inhibition 1 of CNc1nc(C)nc(N[C@H]2CCC[C@@H](C(=O)NCc3ccc(C#N)cc3C(F)(F)F)C2)n1 [UNC10302679A, GSK2256294A] . Value?
12.39
